A collection of compounds and their measured pIC50
- SYSTEM NAME: p110 γ (RAW264.7 cells) (Mus musculus (Mouse), UniProt Q9JHG7)
- Sequence (Q9JHG7 whole entry): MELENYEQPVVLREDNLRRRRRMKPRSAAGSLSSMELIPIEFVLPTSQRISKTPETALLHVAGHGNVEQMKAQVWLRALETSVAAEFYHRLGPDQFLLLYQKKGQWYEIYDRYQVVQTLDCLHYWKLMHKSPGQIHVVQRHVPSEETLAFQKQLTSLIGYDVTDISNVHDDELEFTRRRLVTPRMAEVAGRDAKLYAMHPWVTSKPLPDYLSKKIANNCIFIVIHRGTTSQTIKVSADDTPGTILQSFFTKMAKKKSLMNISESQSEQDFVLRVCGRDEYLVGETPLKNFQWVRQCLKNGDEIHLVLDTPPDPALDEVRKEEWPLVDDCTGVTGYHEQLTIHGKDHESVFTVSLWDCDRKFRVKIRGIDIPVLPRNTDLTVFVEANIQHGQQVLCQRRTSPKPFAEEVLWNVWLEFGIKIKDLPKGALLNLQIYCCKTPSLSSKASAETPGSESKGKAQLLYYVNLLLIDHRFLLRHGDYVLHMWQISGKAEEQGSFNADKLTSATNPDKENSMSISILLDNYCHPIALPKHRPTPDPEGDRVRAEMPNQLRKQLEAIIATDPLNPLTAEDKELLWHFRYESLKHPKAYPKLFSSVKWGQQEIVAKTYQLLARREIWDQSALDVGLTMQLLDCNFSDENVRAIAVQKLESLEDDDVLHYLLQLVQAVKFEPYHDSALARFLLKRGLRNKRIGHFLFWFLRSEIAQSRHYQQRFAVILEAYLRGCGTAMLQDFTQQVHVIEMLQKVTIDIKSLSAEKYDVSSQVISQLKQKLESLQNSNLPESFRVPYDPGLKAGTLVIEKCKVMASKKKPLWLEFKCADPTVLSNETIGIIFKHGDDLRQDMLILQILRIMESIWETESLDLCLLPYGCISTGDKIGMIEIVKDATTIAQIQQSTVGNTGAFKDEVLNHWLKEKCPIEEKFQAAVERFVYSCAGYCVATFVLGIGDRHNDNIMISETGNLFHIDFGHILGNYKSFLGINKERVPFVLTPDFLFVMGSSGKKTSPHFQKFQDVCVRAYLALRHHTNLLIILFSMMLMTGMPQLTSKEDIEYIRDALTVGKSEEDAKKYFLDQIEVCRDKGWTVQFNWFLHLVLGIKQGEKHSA
- PROTOCOL DESCRIPTION: PI3K-γ selective cellular assay: phospho-AKT in C5a stimulated RAW264.7 macrophages
- EXPERIMENTAL CONDITIONS: serum-starved RAW264.7 cells stimulated with C5a
pIC50: −log10 of the molar value.
MEASURED QUANTITY: pIC50

compound=C[C@H](NC(=O)c1c(N)nn2cccnc12)c1cc2cccc(Cl)c2c(=O)n1CCNS(C)(=O)=O measured_quantity=pIC50 reported_result="6.30 to 7.00"
compound=C[C@H](NC(=O)c1c(N)nn2cccnc12)c1cc2cccc(CCc3cnn(C)c3)c2c(=O)n1-c1ccccc1 measured_quantity=pIC50 reported_result="8.00 to 9.00"
compound=C[C@H](NC(=O)c1c(N)nn2cccnc12)c1cc2cccc(Cl)c2c(=O)n1CCS(N)(=O)=O measured_quantity=pIC50 reported_result="7.00 to 8.00"
compound=C[C@H](NC(=O)c1c(N)nn2cccnc12)c1nc2c(Cl)cccc2c(=O)n1-c1ccccc1 measured_quantity=pIC50 reported_result="6.30 to 7.00"
compound=C[C@H](NC(=O)c1c(N)nn2cccnc12)c1cc2cccc(Cl)c2c(=O)n1CCc1cnn[nH]1 measured_quantity=pIC50 reported_result="6.00 to 6.30"
compound=C[C@H](NC(=O)c1c(N)nn2cccnc12)c1nc2cccc(N3CCOCC3)c2c(=O)n1-c1ccccc1 measured_quantity=pIC50 reported_result="6.00 to 6.30"
compound=C[C@H](NC(=O)c1nccnc1N)c1cc2cccc(C(F)(F)F)c2c(=O)n1-c1ccccc1 measured_quantity=pIC50 reported_result="7.00 to 8.00"
compound=Cc1cccc2c(=O)n(-c3ccccc3)c([C@H](C)NC(=O)c3c(N)nn4cccnc34)nc12 measured_quantity=pIC50 reported_result="6.30 to 7.00"
compound="C[C@H](NC(=O)c1c(N)nn2cccnc12)c1cc2cccc(Cl)c2c(=O)n1C1CC(NS(C)(=O)=O)C1 (stereo partly drawn)" measured_quantity=pIC50 reported_result="6.30 to 7.00"
compound=CNS(=O)(=O)CCn1c([C@H](C)NC(=O)c2c(N)nn3cccnc23)cc2cccc(Cl)c2c1=O measured_quantity=pIC50 reported_result="7.00 to 8.00"
compound=C[C@H](NC(=O)c1c(N)nn2cccnc12)c1cc2cccc(Cl)c2c(=O)n1-c1cccnc1 measured_quantity=pIC50 reported_result="7.00 to 8.00"
compound=C[C@H](NC(=O)c1c(N)nn2cccnc12)c1nc2cccc(Cl)c2c(=O)n1-c1ccc(F)cc1 measured_quantity=pIC50 reported_result="8.00 to 9.00"
compound=CCn1cc(-c2cccc3cc([C@H](C)NC(=O)c4c(N)nn5cccnc45)n(-c4ccccc4)c(=O)c23)cn1 measured_quantity=pIC50 reported_result="7.00 to 8.00"
compound=C[C@H](NC(=O)c1c(N)nn2cccnc12)c1cc2cccc(CC(=O)C(C)(C)C)c2c(=O)n1-c1ccccc1 measured_quantity=pIC50 reported_result="6.30 to 7.00"
compound=CCS(=O)(=O)NCCn1c([C@H](C)NC(=O)c2c(N)nn3cccnc23)cc2cccc(Cl)c2c1=O measured_quantity=pIC50 reported_result="6.30 to 7.00"
